Please provide measured viability, T/C for the entries that follow.
- System: 874868-142-R-J2-PDC complex spheroids, growth % test/control
- experimental_details: Anticancer human tumor 874868-142-R-J2-PDC patient-derived head and neck squamous carcinoma cell line growth inhibition [CLK]
- reported_conditions: second compound 0.316 µM; first compound 1 µM; active compounds read low
Record the value in %, omitting the unit from your answer.

The compound identified as CCc1c2c(nc3ccc(O)cc13)-c1cc3c(c(=O)n1C2)COC(=O)[C@]3(O)CC + CNC(=O)c1ccc(Nc2nc(OC3CCCC3)c3c(-c4ccc5nc(C)oc5c4)c[nH]c3n2)c(OC)c1 registered its viability, T/C at 4.87

Record COc1ccc([C@@H](O)c2cc(-c3ncnc4cc(N5CCOCC5)ccc34)c(F)cc2Cl)nn1 + CNC(=O)c1ccc(Nc2nc(OC3CCCC3)c3c(-c4ccc5nc(C)oc5c4)c[nH]c3n2)c(OC)c1 . Reported viability, T/C: 40.5

response.value for CCc1c2c(nc3ccc(O)cc13)-c1cc3c(c(=O)n1C2)COC(=O)[C@]3(O)CC + CN1CCN(c2cc(C(=O)Nc3cc4cc(-c5cnn(C)c5)ccc4cn3)ccn2)CC1 (field: viability, T/C) = 0.22

viability, T/C recorded for this compound, C=C(F)C(=O)N1CCN(c2nc(OCC3CCCN3C)nc3c2CCN(c2cccc4cccc(Cl)c24)C3)CC1CC#N (stereo not given) + CN1CCN(c2cc(C(=O)Nc3cc4cc(-c5cnn(C)c5)ccc4cn3)ccn2)CC1 , is 16.4

// C#Cc1c(F)ccc2cc(O)cc(-c3ncc4c(N5CC6CCC(C5)N6)nc(OCC56CCCN5CC(F)C6)nc4c3F)c12 (stereo not given) + CN1CCN(c2cc(C(=O)Nc3cc4cc(-c5cnn(C)c5)ccc4cn3)ccn2)CC1 : viability, T/C value = 13

====

- System: 874868-142-R-J2-PDC complex spheroids, growth % test/control
- experimental_details: Anticancer human tumor 874868-142-R-J2-PDC cell line growth inhibition [CLK];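 note: spheroids exposed to the compounds for 7 days; 100% = DMSO vehicle control viability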
- reported_conditions: second compound 0.1 µM; first compound 0.00316 µM; active compounds read low
measurement_kind: viability, T/C (%)
Give the number; % is assumed, so skip it.

Per the record, Cn1ncnc1[C@H]1c2n[nH]c(=O)c3cc(F)cc(c23)N[C@@H]1c1ccc(F)cc1 + CN1CCN(c2cc(C(=O)Nc3cc4cc(-c5cnn(C)c5)ccc4cn3)ccn2)CC1 has viability, T/C of 69.8

For this compound ( CCN1CCN(Cc2ccc(Nc3ncc(F)c(-c4cc(F)c5nc(C)n(C(C)C)c5c4)n3)nc2)CC1 + CN1CCN(c2cc(C(=O)Nc3cc4cc(-c5cnn(C)c5)ccc4cn3)ccn2)CC1 ), measured viability, T/C is 85.4

The compound listed as Cn1ncnc1[C@H]1c2n[nH]c(=O)c3cc(F)cc(c23)N[C@@H]1c1ccc(F)cc1 + CNC(=O)c1ccc(Nc2nc(OC3CCCC3)c3c(-c4ccc5nc(C)oc5c4)c[nH]c3n2)c(OC)c1 has a reported viability, T/C of 90.1

The value of viability, T/C measured for the compound CCN1CCN(Cc2ccc(Nc3ncc(F)c(-c4cc(F)c5nc(C)n(C(C)C)c5c4)n3)nc2)CC1 + CNC(=O)c1ccc(Nc2nc(OC3CCCC3)c3c(-c4ccc5nc(C)oc5c4)c[nH]c3n2)c(OC)c1 turned out to be 106

Notebook: COc1c(OCCCN2CCOCC2)ccc2c3n(c(=NC(=O)c4cnc(N)nc4)nc12)CCN3 + CN1CCN(c2cc(C(=O)Nc3cc4cc(-c5cnn(C)c5)ccc4cn3)ccn2)CC1 , viability, T/C read as 57.3

The compound CCc1c2c(nc3ccc(O)cc13)-c1cc3c(c(=O)n1C2)COC(=O)[C@]3(O)CC + CNC(=O)c1ccc(Nc2nc(OC3CCCC3)c3c(-c4ccc5nc(C)oc5c4)c[nH]c3n2)c(OC)c1 showed viability, T/C equal to 50.4

Memo: CCc1c2c(nc3ccc(O)cc13)-c1cc3c(c(=O)n1C2)COC(=O)[C@]3(O)CC + CN1CCN(c2cc(C(=O)Nc3cc4cc(-c5cnn(C)c5)ccc4cn3)ccn2)CC1 , reported viability, T/C: 31.4

Provenance of the data: PubChem BioAssay AID2060601
